- assay.system: EPHB2 (UniProt P29323)
- Sequence (P29323 whole entry, looked up): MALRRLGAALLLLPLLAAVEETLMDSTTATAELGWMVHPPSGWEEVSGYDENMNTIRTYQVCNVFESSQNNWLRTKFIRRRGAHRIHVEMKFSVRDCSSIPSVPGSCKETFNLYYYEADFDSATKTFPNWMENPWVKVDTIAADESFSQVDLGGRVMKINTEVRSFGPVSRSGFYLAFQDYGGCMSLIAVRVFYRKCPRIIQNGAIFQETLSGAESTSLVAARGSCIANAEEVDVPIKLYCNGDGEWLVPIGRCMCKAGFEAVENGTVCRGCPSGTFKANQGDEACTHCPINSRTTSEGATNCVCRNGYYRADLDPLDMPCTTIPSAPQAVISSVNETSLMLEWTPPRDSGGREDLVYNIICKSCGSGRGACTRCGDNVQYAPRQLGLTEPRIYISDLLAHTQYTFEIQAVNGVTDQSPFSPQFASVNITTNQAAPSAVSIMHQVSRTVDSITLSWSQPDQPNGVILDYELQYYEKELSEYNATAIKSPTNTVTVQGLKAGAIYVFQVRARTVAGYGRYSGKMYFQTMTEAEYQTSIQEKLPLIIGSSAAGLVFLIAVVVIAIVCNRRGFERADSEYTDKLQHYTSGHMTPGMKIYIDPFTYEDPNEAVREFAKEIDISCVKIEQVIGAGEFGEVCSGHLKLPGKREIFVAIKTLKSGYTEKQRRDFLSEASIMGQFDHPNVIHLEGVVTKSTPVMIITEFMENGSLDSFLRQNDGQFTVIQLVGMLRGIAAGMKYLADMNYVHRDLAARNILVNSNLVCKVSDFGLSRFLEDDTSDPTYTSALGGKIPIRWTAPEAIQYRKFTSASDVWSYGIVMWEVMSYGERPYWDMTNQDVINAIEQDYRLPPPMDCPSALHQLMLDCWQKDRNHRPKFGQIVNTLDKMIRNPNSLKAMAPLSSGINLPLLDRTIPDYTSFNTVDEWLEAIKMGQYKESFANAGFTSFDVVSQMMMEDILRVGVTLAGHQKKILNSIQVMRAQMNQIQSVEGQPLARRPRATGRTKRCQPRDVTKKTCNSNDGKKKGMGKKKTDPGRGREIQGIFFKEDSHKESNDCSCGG
- test.details: phosphorylation enrichment, bacterial display (enrichment ratio); higher = better substrate or ligand; peptides without Tyr show the background;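 also: 11-residue human phosphosite peptides and single-mutation variants displayed on the E. coli surface, counted by deep sequencing, each peptide's frequency after selection divided by its frequency in the unselected input library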;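 also: frequency after pTyr selection over input frequency; kinase dosed for 20-30% of maximal phosphorylation in three min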
Parameter threshold = 0.6. Response is true when phosphorylation enrichment meets or exceeds it, else false.

Challenge: Please indicate if the recorded phosphorylation enrichment for KTGNIYRTEYG [MRPL3_Y265_M261T] meets or exceeds 0.6.
Response given: false

Challenge: Decide: phosphorylation enrichment of HGVSSYDTVIS [LDLR_Y465] >= 0.6?
Response given: true

Challenge: Does phosphorylation enrichment meet or surpass 0.6 for GIVEDYRPTFY [ACVRL1_Y421_P424T] ?
Response given: false

Challenge: For this sequence, is measured phosphorylation enrichment 0.6 or higher? DNPAKYFILES [DPP10_Y512]
Response given: false

Challenge: // inclusive: phosphorylation enrichment at least 0.6? input: SLESAYPEGSQ [TTF1_Y357]
Response given: false

Challenge: Can RYFTTYDTNGR [CLCA1_Y665] be said to have phosphorylation enrichment at or above 0.6?
Response given: true

Challenge: I'd appreciate it if you could say whether VDHFGYTKDDK [APOB_Y740] has phosphorylation enrichment at least equal to 0.6.
Response given: false

Challenge: Hello, I need to know if WKGSWYSMRKM [FGB_Y475] has measured phosphorylation enrichment not below 0.6. Thanks!
Response given: false

Challenge: Could you tell me if the measured phosphorylation enrichment of IRTIDYRYTVW [IDS_Y497] reaches 0.6 or more?
Response given: false

Challenge: Hello, I need to know if EKPAKYDDIKK [GAPDH_Y255] has measured phosphorylation enrichment not below 0.6. Thanks!
Response given: false

Challenge: Is reported phosphorylation enrichment greater than or equal to 0.6 here: EKRDAYVSRLN [GSR_Y150]
Response given: false

Challenge: Reported phosphorylation enrichment reaches at least 0.6 for LNPLIYTLRNA [OR4C46_Y285_K288R] ?
Response given: true

Challenge: phosphorylation enrichment >= 0.6 for LLKKVYLMLDN [STAT1_Y203_M202V] ?
Response given: true

Challenge: Hi, just wondering whether SILAVYSKDIY [PANK2_Y400_N404I] shows phosphorylation enrichment of 0.6 or higher.
Response given: true

---

- assay.system: FGFR3 (UniProt P22607)
- Sequence (P22607 whole entry, looked up): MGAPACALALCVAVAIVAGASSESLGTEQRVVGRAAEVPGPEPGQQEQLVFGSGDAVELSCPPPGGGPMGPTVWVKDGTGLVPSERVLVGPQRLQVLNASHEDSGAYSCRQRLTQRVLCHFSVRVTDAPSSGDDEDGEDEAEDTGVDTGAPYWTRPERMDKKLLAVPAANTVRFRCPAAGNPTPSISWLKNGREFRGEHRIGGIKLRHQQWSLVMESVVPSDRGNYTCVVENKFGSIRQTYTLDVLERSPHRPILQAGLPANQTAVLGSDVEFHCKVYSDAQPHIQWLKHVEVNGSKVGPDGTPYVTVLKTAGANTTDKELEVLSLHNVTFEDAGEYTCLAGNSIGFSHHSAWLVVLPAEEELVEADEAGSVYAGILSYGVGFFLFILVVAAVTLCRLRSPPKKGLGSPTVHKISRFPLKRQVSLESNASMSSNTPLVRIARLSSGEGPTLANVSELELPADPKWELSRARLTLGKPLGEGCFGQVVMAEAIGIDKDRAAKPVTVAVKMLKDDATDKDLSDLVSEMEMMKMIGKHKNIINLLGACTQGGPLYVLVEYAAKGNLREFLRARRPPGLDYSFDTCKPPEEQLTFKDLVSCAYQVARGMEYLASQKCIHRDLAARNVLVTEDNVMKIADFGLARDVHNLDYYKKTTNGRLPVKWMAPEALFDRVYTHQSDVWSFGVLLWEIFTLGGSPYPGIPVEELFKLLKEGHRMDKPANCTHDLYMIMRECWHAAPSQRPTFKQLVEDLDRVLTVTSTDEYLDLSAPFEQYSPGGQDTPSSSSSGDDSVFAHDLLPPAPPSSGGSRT
- test.details: phosphorylation enrichment, bacterial display (enrichment ratio); higher = better substrate or ligand; peptides without Tyr show the background
Binary classification by phosphorylation enrichment, with 0.8 as an inclusive lower bound for criterion met; all other cases are criterion not met.

Challenge: Answer whether phosphorylation enrichment of KLADVYQAELR [GFAP_Y116] is greater than or equal to 0.8.
Response given: criterion not met

Challenge: Form field: phosphorylation enrichment at least 0.8? Entry: DDKEYYSVHNK [MET_Y1235_Y1230D]
Response given: criterion met

Challenge: Tell me whether phosphorylation enrichment is at least 0.8 here: ASTHIYQIMNH [ITK_Y588_V587I]
Response given: criterion not met

Challenge: Record WFPANYVKLLS [ITSN1_Y1132] ; criterion: phosphorylation enrichment no lower than 0.8. Met?
Response given: criterion met

Challenge: Threshold query (phosphorylation enrichment >= 0.8) on KAPPTYDTVLQ [CYP3A4_Y347]
Response given: criterion not met

Challenge: Identify whether the reported phosphorylation enrichment of the following sequence is 0.8 or greater: RRIHSYRGHVW [VHL_Y112_L116V]
Response given: criterion met

Challenge: Decide: phosphorylation enrichment of VECQVYAEDPY [PCCA_Y401_R399Q] >= 0.8?
Response given: criterion met

Challenge: # check: phosphorylation enrichment of FQASFYRRGDR [LTK_Y677_R673Q_YF] is greater than or equal to 0.8
Response given: criterion not met

Challenge: Given HSGLAYTMERS [GLUD1_Y512] , state whether its phosphorylation enrichment is at least 0.8.
Response given: criterion not met

Challenge: Item QKLPSYILENN [VPS13B_Y2774] with phosphorylation enrichment of 0.8 or above?
Response given: criterion met

Challenge: Could you verify whether the entry AEFGLYAAMVR [VSX2_Y222_G223A_YF] shows phosphorylation enrichment of no less than 0.8?
Response given: criterion met

Challenge: Determine whether measured phosphorylation enrichment meets or exceeds 0.8 for KDAGDYKYKAK [LRIT3_Y326_C328Y]
Response given: criterion not met

Challenge: Dear colleague, could you confirm whether QSMEPYTKQQL [STAT3_Y640_V637M] has phosphorylation enrichment at or above 0.8?
Response given: criterion not met

Challenge: In plain terms: is recorded phosphorylation enrichment at least 0.8 for YTNELYMMMRD [FGFR1_Y730_C725Y] ?
Response given: criterion met

Challenge: Dear colleague, could you confirm whether NTGVYYDLYGG [PTPN11_Y63_D61V] has phosphorylation enrichment at or above 0.8?
Response given: criterion met

Challenge: Say whether PNAYIYVVQLP [L1CAM_Y420_A415P] shows phosphorylation enrichment of 0.8 or more.
Response given: criterion met

Challenge: Threshold query (phosphorylation enrichment >= 0.8) on CLAKMYFSAVE [CP_Y539_D544E_YF]
Response given: criterion met

Challenge: Assess whether reported phosphorylation enrichment for ISSLLYELLEE [TRPC6_Y896_R895L] sits at 0.8 or higher.
Response given: criterion met

Challenge: Determine whether this sequence has phosphorylation enrichment no lower than 0.8: TDLAYYLVREG [ASL_Y376_K380E]
Response given: criterion met

Challenge: Check if phosphorylation enrichment >= 0.8 (inclusive). Item: EKAEVYGSENE [RIOK2_Y348]
Response given: criterion not met

Challenge: Evaluate CEHRGCLFLAI [TEK_Y897_Y897C_YF] : phosphorylation enrichment at minimum 0.8?
Response given: criterion not met

Challenge: Hello, I need to know if YTHSDYQYSQR [PKP2_Y166] has measured phosphorylation enrichment not below 0.8. Thanks!
Response given: criterion not met

Challenge: Please indicate if the recorded phosphorylation enrichment for KAEELYIGVTV [EFHC2_Y509] meets or exceeds 0.8.
Response given: criterion met

Challenge: Check the entry SSAETYSRMRL [NBEAL2_Y1835] : does phosphorylation enrichment equal or exceed 0.8?
Response given: criterion not met

Challenge: # check: phosphorylation enrichment of QPDFLYDHIQP [TRRAP_Y862] is greater than or equal to 0.8
Response given: criterion met

Challenge: Reported phosphorylation enrichment reaches at least 0.8 for GGGGSYNNFGN [HNRNPA1_Y312_D314N] ?
Response given: criterion not met

Challenge: Say whether HNLNFYKKTTN [FGFR3_Y648_D646N_YF] shows phosphorylation enrichment of 0.8 or more.
Response given: criterion met

Challenge: Test whether the sequence LTPVKYLLSAT [GSDMC_Y26] records phosphorylation enrichment of 0.8 or higher.
Response given: criterion not met

Challenge: Would you say KNSSIYVVANI [VNN1_Y134_N131S] shows phosphorylation enrichment at minimum 0.8?
Response given: criterion met

Challenge: Dear colleague, could you confirm whether LWEGSYGKVKE [STK11_Y60_G56W] has phosphorylation enrichment at or above 0.8?
Response given: criterion not met

Challenge: Check this sequence for phosphorylation enrichment at or above 0.8: RRSQSYNPTSG [PLEKHA2_Y185_I186N]
Response given: criterion not met

Challenge: Does phosphorylation enrichment meet or surpass 0.8 for TCFDKYTGSTF [FN1_Y101_N104S_YF] ?
Response given: criterion not met

Challenge: Has GGGCGYNRSSG [FUS_Y232_G230C] a recorded phosphorylation enrichment greater than or equal to 0.8?
Response given: criterion not met

Challenge: Tell me whether phosphorylation enrichment is at least 0.8 here: SDQRRYSLIDP [CLIP2_Y972_R977P]
Response given: criterion not met

Challenge: Please indicate if the recorded phosphorylation enrichment for IITDYYVDMKF [MPP4_Y567_V562I] meets or exceeds 0.8.
Response given: criterion met

Challenge: Given the entry RPGSGYTNIMR [PKLR_Y564] , answer whether its phosphorylation enrichment meets or surpasses 0.8.
Response given: criterion not met

Challenge: Check the entry KCCCIYEKPRS [PPP1R11_Y64_A69S] : does phosphorylation enrichment equal or exceed 0.8?
Response given: criterion not met

Challenge: Say whether SRDDYYETIAM [NPY1R_Y347_D346Y] shows phosphorylation enrichment of 0.8 or more.
Response given: criterion met

Challenge: Determine whether this sequence has phosphorylation enrichment no lower than 0.8: KDDEKYLDVIR [MTM1_Y260]
Response given: criterion not met

Challenge: Hi, just wondering whether LNPDGYKKAYE [CPXM2_Y427_E428K] shows phosphorylation enrichment of 0.8 or higher.
Response given: criterion met

Challenge: Could you verify whether the entry RAILNYIASKY [GSTA3_Y74] shows phosphorylation enrichment of no less than 0.8?
Response given: criterion met

Challenge: Determine whether measured phosphorylation enrichment meets or exceeds 0.8 for VDSLRYIFPKL [EIF2B3_Y92_A87V_YF]
Response given: criterion not met

Challenge: Confirm if phosphorylation enrichment reported for the sequence FGCTFYNQAIM [MCCC2_Y196_R193C] is 0.8 or above.
Response given: criterion met

Challenge: Reported phosphorylation enrichment at or above 0.8? NLVSEYQQYQD [TUBB3_Y422_D417N]
Response given: criterion not met

Challenge: Does AAGGRYDGLLG [HARS2_Y364_V368L] have a reported phosphorylation enrichment of at least 0.8?
Response given: criterion not met

Challenge: Check this sequence for phosphorylation enrichment at or above 0.8: RRAKGYPIDLY [ITGB2_Y125]
Response given: criterion met

Challenge: Record VKANTYENFWP [GATM_Y100_K102N_YF] ; criterion: phosphorylation enrichment no lower than 0.8. Met?
Response given: criterion not met

Challenge: In plain terms: is recorded phosphorylation enrichment at least 0.8 for TEALYYTDDTA [ADPRS_Y75] ?
Response given: criterion met

Challenge: Test whether the sequence EESREYDRLFE [PIK3R1_Y463_K459E_YF] records phosphorylation enrichment of 0.8 or higher.
Response given: criterion not met

Challenge: Please check the record IHFAIYLLKYS [ARMC9_Y107] and state if its phosphorylation enrichment is at or above 0.8.
Response given: criterion not met

Challenge: Entry EKPAKYDDIKK [GAPDH_Y255] : is its phosphorylation enrichment no less than 0.8?
Response given: criterion not met

Challenge: Check if phosphorylation enrichment >= 0.8 (inclusive). Item: YEEDSYSHIMA [FDPS_Y388]
Response given: criterion met

Challenge: Please indicate if the recorded phosphorylation enrichment for DHAGTYGLGDR [MAPT_Y18] meets or exceeds 0.8.
Response given: criterion not met

Challenge: Confirm if phosphorylation enrichment reported for the sequence MEVGQYFFVKC [CYBB_Y324_I325F] is 0.8 or above.
Response given: criterion met

Challenge: Evaluate LRAGVYHEKDQ [DNM2_Y626_P627H] : phosphorylation enrichment at minimum 0.8?
Response given: criterion not met

Challenge: Record PLKALYLQQRP [ATM_Y2969] ; criterion: phosphorylation enrichment no lower than 0.8. Met?
Response given: criterion not met

Challenge: Check if phosphorylation enrichment >= 0.8 (inclusive). Item: RREWFYEVIIV [BACE1_Y260_YF]
Response given: criterion not met
